Biological target: RXFP1 (Homo sapiens)
Construct: expressed in transfected cells; host or cells: HEK293
Sequence (Q9HBX9 1-757): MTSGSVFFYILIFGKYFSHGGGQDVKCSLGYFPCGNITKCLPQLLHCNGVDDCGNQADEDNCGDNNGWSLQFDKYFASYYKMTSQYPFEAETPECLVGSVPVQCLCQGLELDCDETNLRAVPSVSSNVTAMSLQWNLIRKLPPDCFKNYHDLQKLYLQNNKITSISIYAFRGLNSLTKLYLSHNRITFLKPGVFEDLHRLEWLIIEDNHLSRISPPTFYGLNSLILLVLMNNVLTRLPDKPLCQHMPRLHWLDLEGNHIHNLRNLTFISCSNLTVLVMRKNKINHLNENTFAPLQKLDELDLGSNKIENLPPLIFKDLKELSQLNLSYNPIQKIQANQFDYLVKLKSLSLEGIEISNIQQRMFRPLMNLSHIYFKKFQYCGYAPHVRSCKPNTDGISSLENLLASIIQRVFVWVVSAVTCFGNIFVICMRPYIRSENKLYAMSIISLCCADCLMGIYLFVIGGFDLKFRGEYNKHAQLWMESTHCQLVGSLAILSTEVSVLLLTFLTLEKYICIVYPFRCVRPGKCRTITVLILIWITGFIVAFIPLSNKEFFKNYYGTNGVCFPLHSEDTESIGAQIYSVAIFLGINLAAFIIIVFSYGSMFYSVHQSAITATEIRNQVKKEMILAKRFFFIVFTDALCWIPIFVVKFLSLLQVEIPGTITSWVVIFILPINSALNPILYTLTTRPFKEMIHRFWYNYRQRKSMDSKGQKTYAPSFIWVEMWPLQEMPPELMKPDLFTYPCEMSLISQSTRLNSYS
Test: Serelaxin in vitro activity in presence of bovine serum albumin and human serum #2: cAMP in RXFP1-HEK293 cells
Format: cell-based
Conditions: 4% Plasma
recorded.endpoint: pEC50
Hey, just a heads up that pEC50 is the negative log base 10 of the concentration in molar.

What does the record list as pEC50 for Serelaxin: Recombinant 1-chain human relaxin (DSWMEEVIKLCGRELVRAQIAICGMSTWSCFRALSRKTCGVHCCKNALASYLE; Serelaxin Sequence) ?
9.52
